The measurements presented in this section are drawn from ChEMBL document CHEMBL1201862.

- Test system: RXF 393
- experiment.summary: NCI tumour cell line growth inhibition, 48 h
Calls of active or inactive are those of the source. Cut-off read from the data, not from the text of the source: active = GI50 up to about 1.1 µM and inactive = higher.
assay.readout: GI50

For orientation, consider the following solved cases.
>>> value("CCOC(=O)Oc1ccc(C(CNC(C)C)OC(=O)OCC)cc1OC(=O)OCC (centres undefined)")
"11.5 µM (inactive)"
>>> value("CC(=O)/C=N/CC(=O)O")
"> 100 µM (inactive)"
>>> value("C=C1C(=O)OC2C1CC1OC2C(C)CCC/C(C)=C\\CCC1(C)O (centres undefined)")
"5.7 µM (inactive)"
>>> value("COc1cc(C2C(C(=O)O)=C(CO)Oc3cc4c(cc32)OCO4)cc(OC)c1OC (centres undefined)")
"93.3 µM (inactive)"
>>> value("O=S(=O)(Nc1nc2ccccc2nc1N1CCCCCC1)c1ccccc1")
"19.1 µM (inactive)"
>>> value("NC(=O)c1cc(N2CC2)c([N+](=O)[O-])cc1[N+](=O)[O-]")
"> 100 µM (inactive)"
>>> value("CN(C)c1ccc(N2C(=S)SC(=N\\c3ccccc3)/C2=N/c2ccccc2)cc1")
"3.43 µM (inactive)"
>>> value("Cc1nnc(N2C(=O)C(=Cc3ccc(Cl)cc3)N=C2c2ccc(Cl)cc2)nc1/C=C\\c1ccc(N(C)C)cc1")
"> 100 µM (inactive)"

### Prompt Requested read-out: GI50. Entry: Cn1cc(C(=O)NCCC(=N)N)cc1NC(=O)C1=[N+](C)C=C(NC(=O)c2cccc(C(=O)NC3=CC(C(=O)Nc4cc(C(=O)NCCC(=N)N)cn4C)=[N+](C)C3)c2)C1
### Response 35.3 µM (inactive)
